assayed-system: T1, Tat39 (Tat3B; HIV Tat residues 48-86) (HIV-1, UniProt P04608 P04608:48-86)
T1 chain: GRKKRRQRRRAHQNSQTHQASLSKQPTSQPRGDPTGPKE
method: EMSA; 50 pM oligo; 1:1 Kd; 2-3:1 Kd 8000-20000 nM; Krel 10
run-parameters: protein: synthetic; tags: synthetic 39-mer peptide made by solid phase synthesis, UCSF Biotechnology Resource Core; label: 5'-32P; hairpin with bulge

[
  {
    "binder": "GCCAGAUCUGAGCCUGGGAGCUCUCUGGC (XNA, 2'-OMe, PS) [2'-OMe, P=S delta-TAR #2195 29-mer (16-45(-A17))]",
    "Kd [nM]": 4
  }
]
